Hello, the source for this data is patent US8937064B2, in case you need it.

Data export: Ki values recorded with JAK3 (Homo sapiens, UniProt P52333).
quantity.name: Ki

[[record]]
smi = "C[C@H](Nc1cc(-c2c(N)nn3cccnc23)nc(N2CCOCC2)n1)c1ccc(F)cc1"
test_result = "10 to 100 nM"

[[record]]
smi = "CSCCOc1nc(N[C@@H](C)c2ccc(F)cc2F)cc(-c2cnn3cccnc23)n1"
test_result = "10 to 100 nM"

[[record]]
smi = "C[C@H](Nc1cc(-c2c(N)nn3cccnc23)nc(OCC2(C)CC2)n1)c1ccc(F)cc1"
test_result = "100 to 500 nM"

[[record]]
smi = "CC[C@H](Nc1cc(-c2c(N)nn3cccnc23)ncn1)c1ccc(F)c(F)c1"
test_result = "10 to 100 nM"


---

- experimental.system: JAK-2 enzyme (Homo sapiens, UniProt O60674)
- Sequence (O60674 whole entry): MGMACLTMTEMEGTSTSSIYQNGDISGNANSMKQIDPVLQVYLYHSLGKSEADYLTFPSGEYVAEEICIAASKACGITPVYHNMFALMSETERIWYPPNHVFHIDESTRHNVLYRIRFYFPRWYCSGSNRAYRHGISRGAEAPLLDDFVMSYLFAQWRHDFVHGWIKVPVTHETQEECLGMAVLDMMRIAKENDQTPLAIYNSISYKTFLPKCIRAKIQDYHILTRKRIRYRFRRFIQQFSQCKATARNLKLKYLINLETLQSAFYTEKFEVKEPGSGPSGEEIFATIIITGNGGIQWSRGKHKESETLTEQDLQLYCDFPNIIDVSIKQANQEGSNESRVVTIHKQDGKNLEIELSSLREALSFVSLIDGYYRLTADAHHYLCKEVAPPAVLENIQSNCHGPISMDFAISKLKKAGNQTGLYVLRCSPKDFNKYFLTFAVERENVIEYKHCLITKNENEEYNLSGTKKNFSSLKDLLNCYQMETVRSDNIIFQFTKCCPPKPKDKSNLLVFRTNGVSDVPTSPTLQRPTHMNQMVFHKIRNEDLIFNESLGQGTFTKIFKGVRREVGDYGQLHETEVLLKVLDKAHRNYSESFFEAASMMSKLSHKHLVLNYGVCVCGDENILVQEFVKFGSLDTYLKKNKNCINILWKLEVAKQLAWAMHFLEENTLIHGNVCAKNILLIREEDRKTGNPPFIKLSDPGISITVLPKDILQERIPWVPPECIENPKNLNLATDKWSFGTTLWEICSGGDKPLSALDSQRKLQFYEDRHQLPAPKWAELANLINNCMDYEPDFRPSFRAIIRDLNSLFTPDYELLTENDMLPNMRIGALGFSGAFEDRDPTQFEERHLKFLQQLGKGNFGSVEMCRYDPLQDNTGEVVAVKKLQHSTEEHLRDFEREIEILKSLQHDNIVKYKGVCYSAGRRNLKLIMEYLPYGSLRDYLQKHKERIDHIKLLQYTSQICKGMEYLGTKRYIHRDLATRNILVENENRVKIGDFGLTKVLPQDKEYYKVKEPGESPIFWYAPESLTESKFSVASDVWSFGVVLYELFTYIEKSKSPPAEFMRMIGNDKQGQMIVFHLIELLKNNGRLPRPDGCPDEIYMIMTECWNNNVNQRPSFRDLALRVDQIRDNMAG
pKi: −log10 of the molar value.
quantity.name: pKi

[[record]]
molecule = "C[C@H](Nc1cc(-c2c(N)nn3cccnc23)nc(O)n1)c1ccc(F)cc1F [Compound 131]"
test_result = "> 8.00"

[[record]]
molecule = "C[C@H](Nc1cc(-c2c(N)nn3cccnc23)nc(N2CC[C@H](F)C2)n1)c1ccc(F)cc1 [Compound 191]"
test_result = "7.00 to 8.00"

[[record]]
molecule = "C[C@H](Nc1cc(-c2c(N)nn3cccnc23)nc(OCCN2CCCC2=O)n1)c1ccc(F)cc1F [Compound 128]"
test_result = "> 8.00"

[[record]]
molecule = "CSCCCOc1nc(N[C@@H](C)c2ccc(F)cc2)cc(-c2c(N)nn3cccnc23)n1 [Compound 172]"
test_result = "> 8.00"

[[record]]
molecule = "C[C@H](Nc1cc(-c2cnn3cccnc23)nc(OCCN2CCCCC2)n1)c1ccc(F)cc1F [Compound 195]"
test_result = "> 8.00"


---

- experimental.system: JAK3 (Homo sapiens)
- Sequence (P52333 1-1124): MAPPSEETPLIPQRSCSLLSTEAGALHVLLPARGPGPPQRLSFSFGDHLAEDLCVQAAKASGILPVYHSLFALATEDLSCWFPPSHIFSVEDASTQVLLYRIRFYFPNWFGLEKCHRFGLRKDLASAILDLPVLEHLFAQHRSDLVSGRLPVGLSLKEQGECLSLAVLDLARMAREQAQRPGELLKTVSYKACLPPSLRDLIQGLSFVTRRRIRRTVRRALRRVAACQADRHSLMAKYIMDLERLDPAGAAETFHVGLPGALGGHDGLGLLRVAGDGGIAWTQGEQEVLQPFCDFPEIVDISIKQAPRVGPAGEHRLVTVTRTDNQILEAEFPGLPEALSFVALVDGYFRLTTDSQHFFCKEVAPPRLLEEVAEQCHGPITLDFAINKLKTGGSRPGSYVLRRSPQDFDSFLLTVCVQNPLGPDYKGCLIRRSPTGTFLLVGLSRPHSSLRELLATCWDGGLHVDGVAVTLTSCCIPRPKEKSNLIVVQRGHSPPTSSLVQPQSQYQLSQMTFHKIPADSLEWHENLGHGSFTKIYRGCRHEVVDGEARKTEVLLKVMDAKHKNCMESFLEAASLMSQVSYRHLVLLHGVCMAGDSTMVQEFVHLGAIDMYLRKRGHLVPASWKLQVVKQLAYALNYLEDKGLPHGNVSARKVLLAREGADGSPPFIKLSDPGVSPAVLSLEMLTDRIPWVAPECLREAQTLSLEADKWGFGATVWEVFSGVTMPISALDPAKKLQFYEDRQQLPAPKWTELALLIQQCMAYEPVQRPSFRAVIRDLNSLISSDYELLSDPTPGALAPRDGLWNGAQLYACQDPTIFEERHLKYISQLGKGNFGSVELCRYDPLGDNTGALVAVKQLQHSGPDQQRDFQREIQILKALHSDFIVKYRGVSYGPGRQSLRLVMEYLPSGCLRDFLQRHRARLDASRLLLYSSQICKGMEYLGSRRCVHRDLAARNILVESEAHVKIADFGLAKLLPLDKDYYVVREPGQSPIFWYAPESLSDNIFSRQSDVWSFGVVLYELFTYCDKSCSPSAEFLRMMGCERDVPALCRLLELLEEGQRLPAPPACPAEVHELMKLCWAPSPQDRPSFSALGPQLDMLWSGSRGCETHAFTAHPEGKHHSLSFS
pKi: −log10 of the molar value.
quantity.name: pKi

[[record]]
compound = "CSCCOc1nc(N[C@@H](C)c2ccc(F)cc2)cc(-c2c(N)nn3cccnc23)n1 [Compound 173]"
experimental_system = "JAK3 (Homo sapiens)"
quantity_name = "pKi"
test_result = "7.00 to 8.00"

[[record]]
compound = "Nc1nn2cccnc2c1-c1cc(NC2(c3ccc(F)cc3)CC2)ncn1 [Compound 90]"
experimental_system = "JAK3 (Homo sapiens)"
quantity_name = "pKi"
test_result = "7.00 to 8.00"

[[record]]
compound = "C[C@H](Nc1cc(-c2c(N)nn3cccnc23)nc(OCCN2CCCC2=O)n1)c1ccc(F)cc1F [Compound 128]"
experimental_system = "JAK3 (Homo sapiens)"
quantity_name = "pKi"
test_result = "7.00 to 8.00"

[[record]]
compound = "COCCN(C)c1nc(N[C@@H](C)c2ccc(F)cc2F)cc(-c2c(N)nn3cccnc23)n1 [Compound 133]"
experimental_system = "JAK3 (Homo sapiens)"
quantity_name = "pKi"
test_result = "6.30 to 7.00"

[[record]]
compound = "COc1ccccc1CNc1cc(-c2c(N)nn3cccnc23)ncn1 [Compound 5]"
experimental_system = "JAK3 (Homo sapiens)"
quantity_name = "pKi"
test_result = "7.00 to 8.00"

[[record]]
compound = "C=CCCOc1nc(N[C@@H](C)c2ccc(F)cc2)cc(-c2c(N)nn3cccnc23)n1 [Compound 170]"
experimental_system = "JAK3 (Homo sapiens)"
quantity_name = "pKi"
test_result = "7.00 to 8.00"

[[record]]
compound = "CC#CC(C)Oc1nc(N[C@@H](C)c2ccc(F)cc2)cc(-c2c(N)nn3cccnc23)n1 (stereo partly shown) [Compound 181]"
experimental_system = "JAK3 (Homo sapiens)"
quantity_name = "pKi"
test_result = "6.30 to 7.00"

[[record]]
compound = "C[C@H](Nc1cc(-c2cnn3cccnc23)nc(OCCCNCc2ccncc2)n1)c1ccc(F)cc1F [Compound 220]"
experimental_system = "JAK3 (Homo sapiens)"
quantity_name = "pKi"
test_result = "7.00 to 8.00"

[[record]]
compound = "C[C@H](Oc1cc(-c2c(N)nn3cccnc23)ncn1)c1ccccc1 [Compound 68]"
experimental_system = "JAK3 (Homo sapiens)"
quantity_name = "pKi"
test_result = "7.00 to 8.00"

[[record]]
compound = "CC(C)NCCOc1nc(N[C@@H](C)c2ccc(F)cc2F)cc(-c2cnn3cccnc23)n1 [Compound 207]"
experimental_system = "JAK3 (Homo sapiens)"
quantity_name = "pKi"
test_result = "7.00 to 8.00"

[[record]]
compound = "C[C@H](Nc1ccnc(-c2cnn3cccnc23)n1)c1ccc(F)cc1 [Compound 224]"
experimental_system = "JAK3 (Homo sapiens)"
quantity_name = "pKi"
test_result = "6.30 to 7.00"

[[record]]
compound = "CCC#CCOc1nc(N[C@@H](C)c2ccc(F)cc2)cc(-c2c(N)nn3cccnc23)n1 [Compound 162]"
experimental_system = "JAK3 (Homo sapiens)"
quantity_name = "pKi"
test_result = "6.30 to 7.00"

[[record]]
compound = "C[C@H](Nc1cc(-c2c(N)nn3cccnc23)ncn1)c1ccc(Cl)cc1F [Compound 81]"
experimental_system = "JAK3 (Homo sapiens)"
quantity_name = "pKi"
test_result = "7.00 to 8.00"

[[record]]
compound = "C=CCCCOc1nc(N[C@@H](C)c2ccc(F)cc2)cc(-c2c(N)nn3cccnc23)n1 [Compound 182]"
experimental_system = "JAK3 (Homo sapiens)"
quantity_name = "pKi"
test_result = "6.30 to 7.00"

[[record]]
compound = "C[C@H](Nc1cc(-c2c(N)nn3cccnc23)nc(S(C)(=O)=O)n1)c1ccc(F)cc1 [Compound 100]"
experimental_system = "JAK3 (Homo sapiens)"
quantity_name = "pKi"
test_result = "> 8.00"

[[record]]
compound = "CC(C)=CCOc1nc(N[C@@H](C)c2ccc(F)cc2)cc(-c2c(N)nn3cccnc23)n1 [Compound 152]"
experimental_system = "JAK3 (Homo sapiens)"
quantity_name = "pKi"
test_result = "7.00 to 8.00"

